target: Progesterone receptor (Homo sapiens, UniProt P06401); type: functional; note: assay procedure not described here
Sequence (P06401 whole entry): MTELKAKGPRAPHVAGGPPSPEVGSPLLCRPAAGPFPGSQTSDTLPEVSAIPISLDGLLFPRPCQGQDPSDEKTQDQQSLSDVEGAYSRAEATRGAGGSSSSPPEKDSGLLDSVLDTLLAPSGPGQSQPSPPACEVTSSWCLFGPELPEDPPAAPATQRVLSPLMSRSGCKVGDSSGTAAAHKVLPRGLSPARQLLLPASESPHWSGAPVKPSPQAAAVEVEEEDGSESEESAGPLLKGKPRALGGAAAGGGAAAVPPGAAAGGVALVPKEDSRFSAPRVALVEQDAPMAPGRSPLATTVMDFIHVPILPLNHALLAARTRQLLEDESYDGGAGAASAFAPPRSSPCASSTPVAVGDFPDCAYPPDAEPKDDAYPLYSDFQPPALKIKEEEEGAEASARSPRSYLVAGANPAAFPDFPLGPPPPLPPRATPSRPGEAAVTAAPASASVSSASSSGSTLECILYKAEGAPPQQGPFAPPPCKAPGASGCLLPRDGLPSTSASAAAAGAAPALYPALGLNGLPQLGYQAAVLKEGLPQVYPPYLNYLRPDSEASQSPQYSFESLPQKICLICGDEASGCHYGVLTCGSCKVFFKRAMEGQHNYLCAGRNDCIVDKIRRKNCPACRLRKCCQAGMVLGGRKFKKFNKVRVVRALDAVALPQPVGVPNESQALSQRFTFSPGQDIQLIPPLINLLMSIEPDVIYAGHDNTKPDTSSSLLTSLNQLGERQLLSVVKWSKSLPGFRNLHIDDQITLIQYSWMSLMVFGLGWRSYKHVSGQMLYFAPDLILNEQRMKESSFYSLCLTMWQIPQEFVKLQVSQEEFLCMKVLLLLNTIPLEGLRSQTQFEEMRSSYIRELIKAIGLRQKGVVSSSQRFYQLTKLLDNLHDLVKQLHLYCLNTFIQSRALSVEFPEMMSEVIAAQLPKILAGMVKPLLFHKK
Answer each item with its documented AC50.

{"compound": "C/C(O)=C(\\C#N)C(=O)Nc1ccc(C(F)(F)F)cc1 [TERIFLUNOMIDE]", "measurement-kind": "AC50", "value-observed": "> 30 µM"}

List the reported AC50 of each compound below.
1. CN(C)/N=N/c1[nH]cnc1C(N)=O [DACARBAZINE]
2. CC1(C)CCC(CN2CCN(c3ccc(C(=O)NS(=O)(=O)c4ccc(NCC5CCOCC5)c([N+](=O)[O-])c4)c(Oc4cnc5[nH]ccc5c4)c3)CC2)=C(c2ccc(Cl)cc2)C1 [VENETOCLAX]
3. CNC(=O)c1ccccc1Sc1ccc2c(/C=C/c3ccccn3)n[nH]c2c1 [AXITINIB]
4. Cc1cc(C(C)(C)C)c(O)c(C)c1CC1=NCCN1 [OXYMETAZOLINE]

1: > 10 µM; 2: > 30 µM; 3: > 30 µM; 4: > 30 µM

----------
Answer each item with its documented AC50.
Biological target: Thromboxane A2 receptor (Homo sapiens); note: assay procedure not described here
Sequence (P21731 whole entry): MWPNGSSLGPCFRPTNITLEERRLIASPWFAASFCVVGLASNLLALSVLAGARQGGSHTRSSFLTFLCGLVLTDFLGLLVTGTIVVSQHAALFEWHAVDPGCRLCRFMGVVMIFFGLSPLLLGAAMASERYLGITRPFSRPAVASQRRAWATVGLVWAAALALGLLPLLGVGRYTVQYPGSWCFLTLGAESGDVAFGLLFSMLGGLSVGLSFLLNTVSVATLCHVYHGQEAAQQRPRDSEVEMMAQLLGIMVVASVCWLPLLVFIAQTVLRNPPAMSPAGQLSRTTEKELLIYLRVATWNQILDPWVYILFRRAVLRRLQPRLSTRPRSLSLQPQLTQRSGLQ
Format: functional, cell-based

Some compounds with recorded AC50:
{"compound": "CC(CNC(=O)c1ccccc1)C(=O)OCC(=O)[C@@]12OC(C)(C)O[C@@H]1C[C@H]1[C@@H]3CCC4=CC(=O)C=C[C@]4(C)[C@@]3(F)[C@@H](O)C[C@@]12C (stereo partly drawn) [TRIAMCINOLONE BENETONIDE]", "value-observed": "> 30 µM"}
{"compound": "CC[C@H]1CN2CC[C@H]1C[C@H]2[C@H](O)c1ccnc2ccc(OC)cc12 [HYDROQUININE]", "value-observed": "> 30 µM"}

Would you mind telling me what AC50 value was observed for CN(C)CCn1nnnc1SCC1=C(C(=O)O)N2C(=O)[C@@H](NC(=O)Cc3csc(N)n3)[C@H]2SC1 ?
> 30 µM

----------
biological target: Prostaglandin G/H synthase 1 (Homo sapiens); format: functional; note: assay procedure not described here
Sequence (P23219 whole entry): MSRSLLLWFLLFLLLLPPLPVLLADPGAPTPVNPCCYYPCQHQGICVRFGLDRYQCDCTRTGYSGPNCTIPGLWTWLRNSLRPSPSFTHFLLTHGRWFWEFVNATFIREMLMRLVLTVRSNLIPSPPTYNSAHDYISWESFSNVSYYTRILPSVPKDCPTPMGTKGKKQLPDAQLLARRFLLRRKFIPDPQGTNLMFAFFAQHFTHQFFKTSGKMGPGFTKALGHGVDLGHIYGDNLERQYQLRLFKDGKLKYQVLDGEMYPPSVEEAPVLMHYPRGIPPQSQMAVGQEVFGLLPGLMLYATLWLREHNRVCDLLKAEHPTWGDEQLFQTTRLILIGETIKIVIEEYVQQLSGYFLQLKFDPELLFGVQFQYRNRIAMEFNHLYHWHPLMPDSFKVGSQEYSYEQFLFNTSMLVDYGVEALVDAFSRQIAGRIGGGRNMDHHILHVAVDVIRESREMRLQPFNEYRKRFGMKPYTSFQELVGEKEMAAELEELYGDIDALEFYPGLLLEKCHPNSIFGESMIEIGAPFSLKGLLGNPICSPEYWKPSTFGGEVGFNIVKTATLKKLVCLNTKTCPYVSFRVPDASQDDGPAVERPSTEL
Answer each item with its documented AC50.

{"compound": "NC1CCN(c2c(F)cc3c(=O)c(C(=O)O)cn(C4CC4)c3c2Cl)C1 (stereo not drawn)", "AC50": "> 30 µM"}
{"compound": "CCN(CC)CCc1nc(-c2ccccc2)no1", "AC50": "> 30 µM"}
{"compound": "CN(C)[C@@H](c1cccc(O)c1)[C@H]1CCCC[C@H]1O", "AC50": "> 10 µM"}
{"compound": "CCCNC(C)C(=O)Nc1c(C)csc1C(=O)OC (stereo not drawn)", "AC50": "> 30 µM"}
{"compound": "C[N+]1(CCCCC[N+]2(C)CCCC2)CCCC1", "AC50": "> 30 µM"}

List the reported AC50 of each compound below.
1. N[C@H](C(=O)O)[C@H](O)c1ccc(O)c(O)c1
2. CCOc1ccccc1C(N)=O [ETHENZAMIDE]
3. C=CCN1C[C@H](C(=O)N(CCCN(C)C)C(=O)NCC)C[C@@H]2c3cccc4[nH]cc(c34)C[C@H]21

1: 17.8 µM; 2: > 30 µM; 3: > 30 µM

List the reported AC50 of each compound below.
1. N=C1CCCN1Cc1[nH]c(=O)[nH]c(=O)c1Cl
2. COc1cc2c3cc1Oc1cc(ccc1O)C[C@@H]1c4c(cc(OC)c(O)c4Oc4ccc(cc4)C[C@@H]3N(C)CC2)CC[N+]1(C)C
3. OC[C@@H](O)[C@H](O)[C@@H](O)CO

1: > 30 µM; 2: > 30 µM; 3: > 30 µM

List the reported AC50 of each compound below.
1. Cc1cc(C)c(NC(=O)CN(CC(=O)O)CC(=O)O)c(C)c1Br
2. C=CCCCCCCCCC(=O)O
3. C=C[C@H]1C[N@@]2CC[C@H]1C[C@H]2[C@H](O)c1ccnc2ccc(OC)cc12
4. CCCCOC(=O)C(=O)[C@H]1[C@H](C)C[C@H]2[C@@H]3C[C@H](F)C4=CC(=O)C=C[C@]4(C)[C@H]3[C@@H](O)C[C@@]21C
5. CCC(C)(C)c1ccc(CC(C)CN2C[C@@H](C)O[C@@H](C)C2)cc1 (stereo partly drawn)
6. CN(C)CC(c1ccc(O)cc1)C1(O)CCCCC1 (stereo not drawn)

["> 30 µM", "> 30 µM", "> 30 µM", "> 30 µM", "> 30 µM", "> 30 µM"]

Would you mind telling me what AC50 value was observed for CC(C)C[C@H]1C(=O)N2CCC[C@H]2[C@]2(O)O[C@](NC(=O)[C@@H]3C=C4c5cccc6[nH]c(Br)c(c56)C[C@H]4N(C)C3)(C(C)C)C(=O)N12 ?
2.49 µM

Values compiled from ChEMBL document CHEMBL5291721.
